# Tested on: MS2 coat protein
# Assay details: apparent KD of MS2 coat protein; designed switch direction (-1 OFF switch, 1 ON switch): 1; higher = weaker reporter binding
# Experimental setup: input ligand: FMN 200 uM
Endpoint name: apparent KD of MS2 coat protein (µM)
Value expressed in µM; do not type the unit.

[
  {
    "Residue codes": "GGCGAACAGGCUAACAUGAGGAUCACCCAUGUGGACUCAUGUUAGGAUAUCGGGAAGGAGGAAACCGAGAAGGGACGGUGAGCU [AK SSNG3-V2-45] (Eterna round: R96, puzzle: Same State NG 3)",
    "Target or test system": "MS2 coat protein",
    "Display unit": "µM",
    "apparent KD of MS2 coat protein": 0.191
  }
]

Now consider the entry below.
// returns apparent KD of MS2 coat protein for ACAUGAGAGAUAGGAUAUCGUGUACCUACAUGUGACAUGAGGAUCACCCAUGUGGUAAGUAUGAGCGAGAAGGAUCCGAUAUGU [salish99_SSNG2_r04_1001] (Eterna round: R96, puzzle: Same State NG 2) with MS2 coat protein; value = 0.0186

---

Each record here notes measured apparent KD of MS2 coat protein.
# Tested on: MS2 coat protein
# Assay details: apparent KD of MS2 coat protein; designed switch direction (-1 OFF switch, 1 ON switch): -1; higher = weaker reporter binding
# Experimental setup: input ligand: microRNA oligo, concentration not stated
Kindly provide the numeric value in nM only, without the unit symbol.

Would you please look over these solved cases?
[
  {
    "Residue codes": "UAUCGGGACUGAGGAUAUUCGUUCGAGCACGAAGAAGAAGGUAGUGUCAGGGACAUGAGGAUCACCCAUGUGAUUUCAGUCCCA [JL ViennaUCT Erinle mod 6] (Eterna round: R96, puzzle: Exclusion NG 1)",
    "apparent KD of MS2 coat protein (nM)": 102
  },
  {
    "Residue codes": "AUAAUUAGUUCAGGAUAUCAGCACGAUUAGUGCUGAGAAGGGAACAUGAGGAUCACCCAUGUGAUCAAUAUUAUAAUUUUAAUU [ENG1/12-B1] (Eterna round: R96, puzzle: Exclusion NG 1)",
    "apparent KD of MS2 coat protein (nM)": 540
  },
  {
    "Residue codes": "UGUUGUUACGCAGGAUAUGAGGAUCACCCAUAGUAGGAUAACGAAAGUGAAGGACUGAGGAUUACCCAGAAGGGCGGGUUAACA [pwkr exNG2 2xF5 2xFMN.3] (Eterna round: R96, puzzle: Exclusion NG 2)",
    "apparent KD of MS2 coat protein (nM)": 101
  },
  {
    "Residue codes": "UUAGAUAGGUCAGGAUAUCGAUGAUUGAAUUGUAUGAUUUACAUGAGGAUCACCCAUGUUUUGUACGAGAAGGGACGUUAGUUU [JR_ExcNG2_Sub019] (Eterna round: R96, puzzle: Exclusion NG 2)",
    "apparent KD of MS2 coat protein (nM)": 26.1
  },
  {
    "Residue codes": "AACCUGAGGCUUUGCUUUAGGUGUACAUGAGGAUCACCCAUGUAGGAUAUGGUAGGCUUUGCUUACCAGAAGGACAUUAUGAUG [JL ENG3 1.17] (Eterna round: R96, puzzle: Exclusion NG 3)",
    "apparent KD of MS2 coat protein (nM)": 44.3
  },
  {
    "Residue codes": "UUUUACAUAGGAUAUAGUUGCUUUUACAUGAGGAUCACCCAUGUCUCUCCUCUCUCUCUUCUAGAAGGAUGUUUCU [JR_E5_Sub011] (Eterna round: R96, puzzle: Exclusion 5)",
    "apparent KD of MS2 coat protein (nM)": 35.7
  },
  {
    "Residue codes": "UAUAUAUAGUAAGGAUAUAUAUUUAUUUUAUAAAUAGAAGGUACAGACAUGAGGAUCACCCAUGUUAUAAUAUGGACAUGUGGA [JMF's Solution 1] (Eterna round: R96, puzzle: Exclusion NG 1)",
    "apparent KD of MS2 coat protein (nM)": 45.3
  },
  {
    "Residue codes": "AACUAAACAUGAGGAUAUGCCUGGGAAGAACAGGCAGAAGGCGUGACAUGAGGAUCACCCAUGUAGCCGGGCUAUUCUCAUGCG [Cediceor] (Eterna round: R96, puzzle: Exclusion NG 1)",
    "apparent KD of MS2 coat protein (nM)": 26.1
  }
]

Now, please, on to the next sequence.
apparent KD of MS2 coat protein reported for this sequence UAUAUAUAGUAAGGAUAUGUAUAUAUAUUAUAAACAGAAGGUACUGACAUGAGGAUCACCCAUGUUUUAGUGUGGGCAUGUAGA [JMF's solution 58] (Eterna round: R96, puzzle: Exclusion NG 1) : 53.8
